System: LOX IMVI melanoma
Classes used: Y for active, N for inactive

{"Compound": "CC(C)(C)OC(=O)N(CCCN(CCn1c2c(c3ccccc3c1=O)C(=O)c1ccccc1-2)C(=O)OC(C)(C)C)CCn1c2c(c3ccccc3c1=O)C(=O)c1ccccc1-2", "Study Target": "LOX IMVI melanoma", "Cat": "N"}
{"Compound": "CC12CCCC(CC(=O)c3[nH]c4ccccc4c31)C2 (stereo not drawn)", "Study Target": "LOX IMVI melanoma", "Cat": "N"}
{"Compound": "CCCCCCCCCCC(O)C1CCC(C2CCC(C(O)CCCCC(O)CCCCCC(O)CC3=CC(C)OC3=O)O2)O1 (stereo not drawn)", "Study Target": "LOX IMVI melanoma", "Cat": "Y"}

* * *

System: 786-0 renal
Protocol Notes: NCI tumour cell line growth inhibition, 48 h

{"Smiles String": "O=C1C(Br)=CC2(C=C1Br)CCN=c1c(O)c3c(c(O)c12)=NC=N3", "TGI": "30 µM"}
{"Smiles String": "CCCCn1c(C)c(C(=O)OCC)c2cc(OCc3ccc(C(=O)Nn4c(C)ccc4C)cc3)c(Br)cc21", "TGI": "> 100 µM"}
{"Smiles String": "CN(C)C(=S)/N=c1\\ss/c(=N\\C(=S)N(C)C)n1-c1ccc2c(c1)OCO2", "TGI": "> 100 µM"}
{"Smiles String": "CCCCCCCCCCCCCCCCOP(=O)(O)Oc1ccc(/C=C\\c2ccc(OP(=O)(O)OCCCCCCCCCCCCCCCC)cc2)cc1", "TGI": "> 100 µM"}
{"Smiles String": "N#CCCN(CCC#N)c1ccc(C(=O)NN)cc1", "TGI": "> 100 µM"}

* * *

Test system: SK-MEL-5 melanoma
Protocol Notes: NCI tumour cell line growth inhibition, 48 h

{"Compound": "CCOC(=O)CC(NC(=O)c1nc[nH]c1[N+](=O)[O-])C(=O)OCC (centres undefined)", "TGI": "> 100 µM"}
{"Compound": "COc1ccc(C(=O)O)c(Cc2cccc3ccccc23)c1", "TGI": "> 100 µM"}
{"Compound": "CN1CCC(OC(=O)Oc2ccccc2)(c2ccccc2)CC1", "TGI": "34.2 µM"}
{"Compound": "CSc1ccc(C2C(Cl)C(=O)N2NC(=O)c2c(Cl)c(Cl)c(Cl)c(Cl)c2-c2nc3ccccc3[nH]2)cc1 (centres undefined)", "TGI": "35.7 µM"}
{"Compound": "COc1cc([C@@H]2c3cc4c(cc3C(O[C@@H]3O[C@@H]5CO[C@@H](c6cccs6)OC5[C@H](O)[C@H]3O)C3COC(=O)[C@@H]32)OCO4)cc(OC)c1O (some centres undefined)", "TGI": "0.573 µM"}
{"Compound": "COC12C=CC(CC1)C(C)(C)C2=O (centres undefined)", "TGI": "> 100 µM"}
{"Compound": "NC1C2(CCCCCC2)NC(=O)C12CCCCCC2 (centres undefined)", "TGI": "> 100 µM"}
{"Compound": "CCOC(=O)C(Cl)(NC(=O)c1ccc(F)cc1)C(F)(F)F (centres undefined)", "TGI": "> 100 µM"}
{"Compound": "Cc1cc(NS(=O)(=O)c2ccc(N=Nc3c(O)c(C(=O)O)cc4ccccc34)cc2)nc(C)n1", "TGI": "> 100 µM"}
{"Compound": "CC(C(=O)O)c1cnn(-c2ccccc2)c1-n1cccc1 (centres undefined)", "TGI": "> 100 µM"}
{"Compound": "O=C(C[C@@H](C(=O)NCc1cccc(C(F)(F)F)c1)N1C(=O)[C@@H](N2C(=O)OC[C@@H]2c2ccccc2)[C@H]1/C=C/c1ccccc1)NC1CCN(Cc2ccccc2)CC1", "TGI": "12.5 µM"}
{"Compound": "CC(C)NC(=O)OCc1c(COC(=O)NC(C)C)c(-c2ccc[n+](COC(=O)CC(C)(C)C)c2)n2c1CCC2", "TGI": "> 100 µM"}
{"Compound": "CC(C)=CC(=O)N1CCN(C(=O)C=C(C)C)CC1", "TGI": "> 100 µM"}
{"Compound": "C/C(=N\\NC(=S)N1CC2CCC(CC2)C1)c1ccncn1", "TGI": "0.833 µM"}
{"Compound": "Cc1ccc(NC(=O)C2C(=O)N(c3ccc(C)c(C)c3)C(=O)/C2=N/O)cc1C (centres undefined)", "TGI": "> 100 µM"}
{"Compound": "O=C1SCC(O)=C1/C=N/Nc1nc2ccccc2o1", "TGI": "63.9 µM"}
{"Compound": "CCOC(=O)NC(Nc1ccc(S(=O)(=O)Nc2ncccn2)cc1)(C(=O)OCC)C(F)(F)F (centres undefined)", "TGI": "> 100 µM"}
{"Compound": "Cn1cc(C2=C(c3cn(CCCN=C(N)N)c4ccccc34)C(=O)NC2=O)c2ccccc21", "TGI": "> 25 µM"}
{"Compound": "NCCCCn1c2c(c3ccccc3c1=O)C(=O)c1ccccc1-2", "TGI": "1.25 µM"}
{"Compound": "CNC1C(=O)C(C)C(O)(C(CC(C)C(O)/C=C/C=C/CNC(=O)C(C)(C)C(O)\\C(C)=C/C=C\\C=C\\Cc2cnc(C)o2)OC)C12C(=O)OC2COC (centres undefined) (tested in a mixture with another compound)", "TGI": "18.4 µM"}
{"Compound": "O=C(O)c1cc(N=Nc2ccc([As](=O)(O)O)cc2)ccc1O", "TGI": "> 100 µM"}
{"Compound": "CC1=CC(=O)NCCN1C", "TGI": "> 100 µM"}
{"Compound": "N#Cc1nc(COCCOCc2ccccc2)oc1N", "TGI": "> 100 µM"}
{"Compound": "CCOC(=O)/C(O)=C(/C=NC(=S)c1ccncc1)C(=O)OCC", "TGI": "> 100 µM"}
{"Compound": "O=C(CCc1ccc(O)cc1)NCCc1ccc(O)cc1", "TGI": "> 100 µM"}
{"Compound": "O=C1c2ccccc2S[C@@H](O)[C@@H]2CCCN12", "TGI": "> 100 µM"}
{"Compound": "O=C1CCC(c2ccccc2)C(O)(C(=O)O)C1 (centres undefined)", "TGI": "> 100 µM"}
{"Compound": "Oc1ccc2ccccc2c1N=Nc1ccc(F)cc1", "TGI": "> 100 µM"}
{"Compound": "CC12CCCC(CC(=O)c3[nH]c4ccccc4c31)C2 (centres undefined)", "TGI": "15 µM"}
{"Compound": "CC(=O)NNc1nc(C)c(C(/C=C/c2cccc([N+](=O)[O-])c2)=N/NC(=S)NN)s1", "TGI": "> 100 µM"}
{"Compound": "O=[N+]([O-])c1ccc2nnnn2c1", "TGI": "41.4 µM"}
{"Compound": "COc1cccc(N=Cc2c3ccccc3c(=O)n3c2oc2ccccc23)c1", "TGI": "37.1 µM"}
{"Compound": "COc1cc([N+](=O)[O-])ccc1NC(=O)C(F)(F)F", "TGI": "> 100 µM"}
{"Compound": "Clc1cccc(Cl)c1C1SCC2=Nc3ccccc3CN21 (centres undefined)", "TGI": "29.2 µM"}

* * *

Test system: NCI-H23 lung
Protocol Notes: NCI tumour cell line growth inhibition, 48 h

{"Molecule": "O=c1[nH]c(=O)n(C2CC(O)C(CS)O2)cc1F (configuration not stated)", "TGI": "> 100 µM"}
{"Molecule": "CC12CCCC(CC(=O)c3[nH]c4ccccc4c31)C2 (configuration not stated)", "TGI": "> 63.1 µM"}
{"Molecule": "CC(C)CC(N)C(=O)O (configuration not stated)", "TGI": "> 100 µM"}
{"Molecule": "Cn1c(=O)c2c(nc(NCCCCl)n2CC(=O)NCCCCl)n(C)c1=O", "TGI": "> 100 µM"}
{"Molecule": "CCOC(=O)[C@H]1Nc2ccc(C)cc2C2c3ccccc3CC21 (some centres not stated)", "TGI": "> 100 µM"}
{"Molecule": "O=S(O)CCCCSSCCCCSSCCCCS(=O)O", "TGI": "> 100 µM"}
{"Molecule": "C1=C2C3=[N+](CCCC3)CC2Cc2ccsc21 (configuration not stated)", "TGI": "> 100 µM"}
{"Molecule": "O=C(C[C@@H](C(=O)NCc1cccc(C(F)(F)F)c1)N1C(=O)[C@@H](N2C(=O)OC[C@@H]2c2ccccc2)[C@H]1/C=C/c1ccccc1)NC1CCN(Cc2ccccc2)CC1", "TGI": "17.6 µM"}
{"Molecule": "CCSc1nc(N2CCOCC2)c2cn[nH]c2n1", "TGI": "> 100 µM"}
{"Molecule": "COc1ccc(-c2c(C(C)=O)c(-c3ccccc3)n(C3OC(COC(C)=O)C(OC(C)=O)C(OC(C)=O)C3OC(C)=O)c(=S)c2C#N)cc1 (configuration not stated)", "TGI": "> 100 µM"}
{"Molecule": "CC1=CC(=O)NCCN1C", "TGI": "> 100 µM"}
{"Molecule": "COc1cccc(NCc2nnc(Nc3ccc(Cl)cc3)c3ccccc23)c1", "TGI": "6.74 µM"}
{"Molecule": "CC(C(=O)O)c1cnn(-c2ccccc2)c1-n1cccc1 (configuration not stated)", "TGI": "> 100 µM"}
{"Molecule": "CCCN=C(NC(=O)c1ccc(Cl)cc1)SC", "TGI": "> 100 µM"}
{"Molecule": "C[N+](C)(N)CCC[N+](C)(C)N", "TGI": "> 100 µM"}
{"Molecule": "CO/N=C(\\C(=O)Nc1cncs1)c1csc(NC(c2ccccc2)(c2ccccc2)c2ccccc2)n1", "TGI": "> 10 µM"}
{"Molecule": "Cc1ccc2nc3ccccc3c(C3C4C(=O)N(c5ccc(Br)cc5Cl)C(=O)C4ON3C(C(N)=O)c3ccccc3)c2c1 (configuration not stated)", "TGI": "6.86 µM"}
{"Molecule": "COC12C=CC(CC1)C(C)(C)C2=O (configuration not stated)", "TGI": "> 100 µM"}
{"Molecule": "CC(C)(C)C1=CC(=CC=C2C=CN(CCCCCCCCCCCO)C=C2)C=C(C(C)(C)C)C1=O", "TGI": "10.6 µM"}
{"Molecule": "C=CCN1C(=O)/C(=C/c2ccccc2)NC1=S", "TGI": "> 100 µM"}
{"Molecule": "CC(=O)OCC1OC(N2C(c3ccccc3)=CC(c3ccccc3)C(C#N)=C2S)C(OC(C)=O)C(OC(C)=O)C1OC(C)=O (configuration not stated)", "TGI": "40.5 µM"}
{"Molecule": "CCCN(CCCCC(NC(C)=O)C(=O)NCc1ccccc1)C(=O)N(CCCl)N=O (configuration not stated)", "TGI": "98.5 µM"}
